- EXPERIMENTAL DETAILS: Cytotoxicity against african green monkey Vero cells after 48 hrs by neutral red assay
- Type: cell-based
- CONDITION DESCRIPTION: chlorocebus sabaeus, read-out: TC50
MEASURED PROPERTY: CC50 at 48 h (µg/mL)
I only need the number, in µg/mL, no unit after it.

Use the examples below as a reference point.
C[n+]1c2cc(Cl)ccc2cc2[nH]c3ccccc3c21.O=S(=O)([O-])C(F)(F)F
2.1
C[n+]1c2ccccc2cc2[nH]c3c(Cl)cccc3c21.[I-]
3.2
C[n+]1c2cc(Cl)ccc2c(Cl)c2[nH]c3ccccc3c21.[I-]
10

As a next step, examine the molecule that follows.
Lookup: Name the recorded CC50 at 48 h for C[n+]1c2ccccc2cc2[nH]c3ccc(Br)cc3c21.[I-] .
Found: 0.93

----------
- Test system: Candida albicans
- EXPERIMENTAL DETAILS: Antifungal activity against Candida albicans ATCC 90028 by microscopy
- Assay type: functional
Lab note: cut-off is 5 µg/mL. Strictly less in MIC is Fulfilled. Exactly 5 µg/mL or more is Not fulfilled.

Please review the following examples before continuing.
Clc1ccc(Nc2cc3ccccc3[n+](CCCCCc3ccccc3)c2)cc1.[I-]
Not fulfilled
C[n+]1cccc(N(CCCCCC2CCCCC2)c2ccc(F)cc2)c1.[I-]
Not fulfilled
CCc1ccc(N(CCCCCC2CCCCC2)c2ccc[n+](C)c2)cc1.[I-]
Fulfilled
[I-].c1ccc(Nc2cc3ccccc3[n+](CCCCCC3CCCCC3)c2)cc1
Not fulfilled

Lookup: Below 5 µg/mL on MIC? Entry C[C@@H]1[C@H](O)[C@@H](C)/C=C/C=C/C=C/C=C/C=C/C=C/C=C/[C@H](O[C@@H]2O[C@H](C)[C@@H](O)[C@H](N)[C@@H]2O)C[C@@H]2O[C@](O)(C[C@@H](O)C[C@@H](O)[C@H](O)CC[C@@H](O)C[C@@H](O)CC(=O)O[C@H]1C)C[C@H](O)[C@H]2C(=O)O
Found: Fulfilled

----------
- Tested on: Aspergillus fumigatus
- EXPERIMENTAL DETAILS: Antifungal activity against Aspergillus fumigatus ATCC 90906 assessed as inhibition of fungal growth by alamar blue assay
- Format: functional, organism-based
- CONDITION DESCRIPTION: Aspergillus fumigatus, ATCC 90906; read-out: IC50
MEASURED PROPERTY: IC50 (mg/L)
I only need the number, in mg/L, no unit after it.

C[C@@H]1[C@H](O)[C@@H](C)/C=C/C=C/C=C/C=C/C=C/C=C/C=C/[C@H](O[C@@H]2O[C@H](C)[C@@H](O)[C@H](N)[C@@H]2O)C[C@@H]2O[C@](O)(C[C@@H](O)C[C@@H](O)[C@H](O)CC[C@@H](O)C[C@@H](O)CC(=O)O[C@H]1C)C[C@H](O)[C@H]2C(=O)O
0.7
C[n+]1cccc(N(CCCCCC2CCCCC2)c2ccccc2)c1.[I-]
19.7
Cc1ccccc1N(CCCCCC1CCCCC1)c1ccc[n+](C)c1.[I-]
19

Lookup: Name the recorded IC50 for C[n+]1cccc(N(CCCCCC2CCCCC2)c2ccc(C(F)(F)F)cc2)c1.[I-] .
Found: 1.5

Lookup: Name the recorded IC50 for C[n+]1cccc(N(CCCCCC2CCCCC2)c2ccc(Cl)cc2)c1.[I-] .
Found: 1

Lookup: Name the recorded IC50 for C[n+]1c2ccc(Cl)cc2cc2[nH]c3ccccc3c21.[I-] .
Found: 10
